- Tested on: SK-MEL-2 melanoma
- method: NCI-60 one-dose screen, 48 h (100 = growth as untreated, 0 = no growth, -100 = all killed)
- condition_info: 10 µM unless noted
Compounds without any hit were thinned out: in the full panel of roughly 83,000, 20% have a hit.
Binary call on growth with cut-off 90%: strictly below means Condition met, and equality or higher means Condition not met.

compound: C#Cc1ccc2c(c1)C(c1ccccc1F)=NCC(=O)N2C
tested_target: SK-MEL-2 melanoma
class_assignment: Condition met
--
compound: O=C([O][Hg][CH2]C1COCC([CH2][Hg][O]C(=O)c2ccccc2)O1)c1ccccc1 (stereo not drawn)
tested_target: SK-MEL-2 melanoma
class_assignment: Condition not met
--
compound: COC(=O)[C@@H](C)C[C@H](Cc1ccccc1)NC(=O)c1csc([C@@H](C[C@H](C(C)C)N(C)C(=O)C2(NC(=O)[C@H]3CCCCN3C)CC2)OC(C)=O)n1
tested_target: SK-MEL-2 melanoma
class_assignment: Condition met
--
compound: CC1(C)N=C(N)N=C(N)N1c1ccc(OCCCNC(=O)Nc2ccc(S(=O)(=O)F)cc2)c(Cl)c1
tested_target: SK-MEL-2 melanoma
class_assignment: Condition met
--
compound: COc1cc2c(cc1OCCCn1c(-c3ccccn3)nc3ccccc31)N=C[C@@H]1CCCN1C2=O
tested_target: SK-MEL-2 melanoma
class_assignment: Condition met
--
compound: C[N+](C)(C)Cc1cc(Cl)ccc1O
tested_target: SK-MEL-2 melanoma
class_assignment: Condition not met
--
compound: N#C[S-].[Au+].c1ccc(CN2[CH-]N(Cc3ccccc3)C(c3ccccc3)=C2c2ccccc2)cc1
tested_target: SK-MEL-2 melanoma
class_assignment: Condition met
--
compound: Cc1ccc(S(=O)(=O)F)cc1C(=O)O
tested_target: SK-MEL-2 melanoma
class_assignment: Condition not met
--
compound: CCC(C)(C)[C@H](NC(=O)[C@H]1CCCCN1C)C(=O)N(C)[C@H](C[C@@H](OC(C)=O)c1nc(C(=O)N[C@@H](Cc2ccccc2)C[C@H](C)C(=O)O)cs1)C(C)C
tested_target: SK-MEL-2 melanoma
class_assignment: Condition met
--
compound: CCOC(=O)N[C@H]1CCc2c(Br)c(OC)c(OC)c(OC)c2-c2ccc(SC)c(=O)cc21
tested_target: SK-MEL-2 melanoma
class_assignment: Condition met

*Q* Threshold test, growth < 90%: CC[C@@H]1[C@@H](C)O[C@@](O)([C@@H](C)[C@H](O)[C@H](C)[C@H]2OC(=O)/C=C/C=C/[C@H](C)[C@@H]([C@@H](C)[C@@H](O)[C@H](C)[C@@]3(O)C[C@@H](O[C@H]4C[C@@H](O)[C@H](O)C(C)O4)[C@H](CC)[C@@H](C)O3)OC(=O)/C=C/C=C/[C@@H]2C)C[C@H]1O[C@@H]1C[C@@H](O)[C@H](O)C(C)O1 (stereo partly drawn)
*A* Condition met

*Q* Further, for O=c1[nH]cc(N(CCCl)CCCl)c(=O)[nH]1 ?
*A* Condition not met

*Q* Same for COC(=O)[C@@H](C)C[C@H](Cc1ccccc1)NC(=O)c1csc([C@@H](C[C@H](C(C)C)N(C)C(=O)[C@@H](NC(=O)[C@H]2CCCCN2C)C(C(F)(F)F)C(F)(F)F)OC(C)=O)n1
*A* Condition met

*Q* Request: O=C(CC1(O)C(=O)N(Cc2ccccc2)c2ccc(Br)cc21)c1ccc(C(=O)NCC2CCC3(CC2)OOC2(CCCCC2)OO3)cc1 (stereo not drawn)
*A* Condition met

*Q* Field entry: CCOC(=O)[C@@H](C)C[C@H](Cc1ccccc1)NC(=O)c1csc([C@@H](C[C@H](C(C)C)N(C)C(=O)[C@@H](NC(=O)[C@H]2C[C@H](O)CCN2C)C(C)C)OC(C)=O)n1
*A* Condition met

*Q* Could you do the same for NC(=Nc1ccccc1)N[N+](=O)[O-] , please?
*A* Condition not met

*Q* Then this compound: O=[N+]([O-])c1ccc([Se]C2CCCCC2Cl)c([N+](=O)[O-])c1 (stereo not drawn)
*A* Condition met

*Q* Another compound to look at: O=C1C2CCC1C(N1CCCC1)CC2 (stereo not drawn)
*A* Condition not met

*Q* For Fc1ccc(C2=CCNCC2)cc1 then?
*A* Condition not met

*Q* What about Cc1c(O)c(CN(CCCl)CCCl)cc(CN(CCCl)CCCl)c1O ?
*A* Condition not met
